- assay-details: chemical genetic growth profiling, strain panel (AID 1159580);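 note: tested at 20 µM; growth read once vehicle control cultures reached saturation at 30 °C; lower values mean less growth of the strain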
- experimental-setup: S. cerevisiae deletion strains, growth OD, locus YDR318W, strain mcm21
The campaign covered roughly 5,500 compounds. About 2,000 (36%) were called active. Not shown: some 18% with an inconclusive outcome. Cut-off read from the data, not from the text of the source: active = normalized growth mostly below about 0.91 (no sharp cut-off); inconclusive = no clear call, values can overlap the other calls; inactive = mostly above about 0.92. The list shows a part of the results.
Answer with one of the outcomes given here: T for active, F for inactive

>>> df
                                compound  assigned_class
0  Nc1ccc(S(=O)(=O)Nc2ccnn2-c2ccccc2)cc1               F
1       CCOP(=S)(OCC)Oc1nc(Cl)c(Cl)cc1Cl               F
2         COc1ccc2c3c([nH]c2c1)C(C)=NCC3               F

## Input Returns: the outcome recorded for Clc1ccccc1C(c1ccccc1)(c1ccccc1)n1ccnc1 in this assay.
## Output T

## Input Okay, and CC(C)=CCCC1(C)C=Cc2c(O)c3c(c(CC=C(C)C)c2O1)OC12C(=CC4CC1C(C)(C)OC2(C/C=C(/C)C(=O)O)C4O)C3=O (stereo not given) ?
## Output F
